assay-comment: Brain distribution in tumor-bearing mice
Assay type: in vivo
test-parameters: mouse, tumor-bearing NSG mice, read-out: brain to plasma ratio
endpoint-label: Kp

Given the entry Cn1cc(-c2cc(S(C)(=O)=O)ccc2OCC2CC2)c2ccccc2c1=O [Compound A] , report its measured Kp.
0.14 to 0.16

###

assay-comment: Tumor concentrations in COH70 model
Type: in vivo, mice
test-parameters: mouse, tumor; 10 mg/kg; 2 hr post-dose; read-out: maximally-measured tumor level
endpoint-label: concentration at 2 hr

What value of measured concentration at 2 hr is listed for Cn1cc(-c2cc(S(C)(=O)=O)ccc2OCC2CC2)c2ccccc2c1=O ?
6.7 µM

###

assay-comment: Pharmacokinetics and oral bioavailability in rats
Format: in vivo, Sprague-Dawley rats
test-parameters: Sprague-Dawley, rat, in vivo, po
endpoint-label: bioavailability

State the recorded bioavailability for this entry: Cn1cc(-c2cc(S(C)(=O)=O)ccc2OCC2CC2)c2ccccc2c1=O
40%

###

assay-comment: Plasma protein binding, human
Format: in vitro ADME
endpoint-label: fraction unbound

// fraction unbound lookup, key: Cn1cc(-c2cc(S(C)(=O)=O)ccc2OCC2CC2)c2ccccc2c1=O
0.098

###

Test system: COH71 TNBC PDX-derived model
assay-comment: 3-D Matrigel colony formation, COH71
Assay type: cell-based
test-parameters: Homo sapiens, 7 or 14 days
Experimental: The effect of Compound A on colony formation in four PDX-derived breast cancer models was assessed using a 3-D Matrigel-based in vitro culture system. Compound A was tested at concentrations ranging from either 0.008 μM to 5 μM or 0.0016 μM to 1 μM in 5-fold increments. Colony formation was assessed after 7 days or 14 days of treatment by quantifying colony numbers by microscopy. […] The overall mean for the three TNBC models was 0.11±0.04 μM.
endpoint-label: IC50 (nM)
Write down the numeric answer in nM and omit the unit.

# query: IC50 of entry Cn1cc(-c2cc(S(C)(=O)=O)ccc2OCC2CC2)c2ccccc2c1=O [Compound A]
180

###

System: TNBR3 TNBC PDX-derived model
assay-comment: 3-D Matrigel colony formation, TNBR3
Format: cell-based
test-parameters: Homo sapiens, 7 or 14 days
endpoint-label: IC50 (nM)
Numeric only. Scale: nM

Entry Cn1cc(-c2cc(S(C)(=O)=O)ccc2OCC2CC2)c2ccccc2c1=O [Compound A] : reported IC50 = ?
80

###

Test system: FOSL1 gene expression in U 87 glioblastoma cells
assay-comment: qRT PCR of FOSL1 gene expression
Format: cell-based
test-parameters: read-out: IC50, inhibition of FOSL1 gene expression
Protocol: Regulation of MYC gene expression by BRD4 has been shown in models of Burkitt's lymphoma with inhibition of BRD4, leading to growth arrest (Mertz, 2011). Similarly, in a model of lung adenocarcinoma. BRD4 inhibition was also found to be antiproliferative; however, this effect was ascribed to FOSL1 down-regulation (Lockwood, 2012). […] The effect of Compound A treatment on MYC FOSL1, and GLI1 gene expression was evaluated by quantitative reverse transcription polymerase chain reaction (qRT PCR).
endpoint-label: IC50 (nM)
// return numeric value only (unit: nM, not printed)

Record Cn1cc(-c2cc(S(C)(=O)=O)ccc2OCC2CC2)c2ccccc2c1=O : what is its IC50 with FOSL1 gene expression in U 87 glioblastoma cells?
30
